Each record here notes measured pKi.
Biological target: 5-hydroxytryptamine receptor 1A (Homo sapiens, UniProt P08908)
Sequence (P08908 whole entry): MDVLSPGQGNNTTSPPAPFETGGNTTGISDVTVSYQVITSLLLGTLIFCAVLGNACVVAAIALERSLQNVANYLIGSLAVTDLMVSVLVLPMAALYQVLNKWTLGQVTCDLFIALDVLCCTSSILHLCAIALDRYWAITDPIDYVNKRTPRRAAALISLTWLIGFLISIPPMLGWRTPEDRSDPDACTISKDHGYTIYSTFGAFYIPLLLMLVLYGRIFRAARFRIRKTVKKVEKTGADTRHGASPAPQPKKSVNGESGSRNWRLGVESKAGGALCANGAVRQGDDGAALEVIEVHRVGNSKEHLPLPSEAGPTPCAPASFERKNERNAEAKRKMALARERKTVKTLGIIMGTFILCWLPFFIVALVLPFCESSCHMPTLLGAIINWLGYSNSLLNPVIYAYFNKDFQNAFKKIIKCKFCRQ
# pKi is unitless: minus log10 of the molar concentration; print number only

The compound `Fc1ccc(N2CCN(Cc3c[nH]c4ncccc34)CC2)cc1` showed pKi equal to 5.56

// `COc1ccccc1N1CCN(Cc2c[nH]c3ncccc23)CC1` : pKi value = 6.39

Form field pKi, entry `Fc1ccccc1N1CCN(Cc2c[nH]c3ncccc23)CC1` : 6.00

* * *

target: Glutamate [NMDA] receptor; assay: Binding affinity for N-methyl-D-aspartate glutamate receptor
pKi: −log10 of the molar value.
// reported pKi for each item listed

The following compounds have reported results that may help.
>>> print(df.to_string())
                             chemicalsmiles  readoutkind  result
0  C=Cc1ccc(N2CCN(Cc3c[nH]c4ncccc34)CC2)cc1          pKi  < 5.00
1   COc1ccc(N2CCN(Cc3c[nH]c4ncccc34)CC2)cc1          pKi  < 5.00

// switching to the query compound
The compound listed as `c1ccc(-c2ccc(N3CCN(Cc4c[nH]c5ncccc45)CC3)cc2)cc1` has a reported pKi of < 5.00

* * *

target: 5-hydroxytryptamine receptor 2A (Homo sapiens)
Sequence (P28223 whole entry): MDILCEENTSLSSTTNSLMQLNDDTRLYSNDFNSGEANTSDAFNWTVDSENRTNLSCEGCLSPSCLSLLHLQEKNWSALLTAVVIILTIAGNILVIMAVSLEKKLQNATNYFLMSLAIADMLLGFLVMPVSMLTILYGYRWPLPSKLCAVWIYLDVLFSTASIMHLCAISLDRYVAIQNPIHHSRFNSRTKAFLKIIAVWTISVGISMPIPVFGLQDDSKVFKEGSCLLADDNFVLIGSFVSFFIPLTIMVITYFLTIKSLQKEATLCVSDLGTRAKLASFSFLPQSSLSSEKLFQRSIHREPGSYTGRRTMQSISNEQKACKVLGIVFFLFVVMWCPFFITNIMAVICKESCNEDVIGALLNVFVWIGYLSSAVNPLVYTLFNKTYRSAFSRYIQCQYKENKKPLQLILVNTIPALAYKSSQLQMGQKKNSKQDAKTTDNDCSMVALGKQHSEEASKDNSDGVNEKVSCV
Measured log10 of Ki by item
Scale: log10; quantity: Ki; unit before log: nM

                         chemicalsmiles  result
0  Fc1ccccc1N1CCN(Cc2c[nH]c3ncccc23)CC1    2.38

Assay 5-hydroxytryptamine receptor 2A (Homo sapiens), sample `COc1ccccc1N1CCN(Cc2c[nH]c3ncccc23)CC1` , log10 of Ki read: 3.36

The compound `FC(F)(F)c1ccc(N2CCN(Cc3c[nH]c4ncccc34)CC2)cc1` , when measured on 5-hydroxytryptamine receptor 2A (Homo sapiens), yielded log10 of Ki of 3.45

Summary: `C=Cc1ccc(N2CCN(Cc3c[nH]c4ncccc34)CC2)cc1` , 5-hydroxytryptamine receptor 2A (Homo sapiens), log10 of Ki = 2.71

The compound `Fc1ccc(N2CCN(Cc3c[nH]c4ncccc34)CC2)cc1` , when measured on 5-hydroxytryptamine receptor 2A (Homo sapiens), yielded log10 of Ki of 2.37

The measured log10 of Ki that `CCc1ccc(N2CCN(Cc3c[nH]c4ncccc34)CC2)cc1` showed for 5-hydroxytryptamine receptor 2A (Homo sapiens) is 2.80

* * *

target: D(1A) dopamine receptor (Rattus norvegicus); experiment: In vitro binding affinity to cloned rat Dopamine receptor D1 measured by displacement of radioligand [3H]SCH-23,982
Sequence (P18901 whole entry): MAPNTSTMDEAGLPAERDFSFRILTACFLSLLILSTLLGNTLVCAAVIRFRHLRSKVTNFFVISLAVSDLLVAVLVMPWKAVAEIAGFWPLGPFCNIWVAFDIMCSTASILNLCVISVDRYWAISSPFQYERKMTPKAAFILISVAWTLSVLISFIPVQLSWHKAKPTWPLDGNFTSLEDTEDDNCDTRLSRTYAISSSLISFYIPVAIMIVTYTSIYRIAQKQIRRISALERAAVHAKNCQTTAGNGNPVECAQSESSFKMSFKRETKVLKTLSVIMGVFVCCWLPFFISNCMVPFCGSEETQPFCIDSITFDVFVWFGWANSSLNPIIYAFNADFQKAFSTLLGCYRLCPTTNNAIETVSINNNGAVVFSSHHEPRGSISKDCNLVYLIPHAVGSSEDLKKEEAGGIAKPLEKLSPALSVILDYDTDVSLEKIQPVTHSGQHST
pKi: −log10 of the molar value.
Each record here notes measured pKi.

Answered examples (3):
>>> print(df.to_string())
                             chemicalsmiles  result
0  c1ccc(-c2ccc(N3CCN(Cc4c[nH]c5ncccc45)CC3)cc2)cc1  < 5.00
1   CCc1ccc(N2CCN(Cc3c[nH]c4ncccc34)CC2)cc1  < 5.00
2     COc1ccccc1N1CCN(Cc2c[nH]c3ncccc23)CC1  < 5.00

Per the records, this molecule ( `Fc1ccccc1N1CCN(Cc2c[nH]c3ncccc23)CC1` ) has pKi equal to < 5.00

Measured pKi, `Fc1ccc(N2CCN(Cc3c[nH]c4ncccc34)CC2)cc1` : < 5.00

* * *

pKi: −log10 of the molar value.
Listed here: molecules with reported pKi for D(1B) dopamine receptor (Rattus norvegicus, UniProt P25115).

Look over these answered cases.
>>> print(df.to_string())
                             chemicalsmiles  result
0  CCCc1ccc(N2CCN(Cc3c[nH]c4ncccc34)CC2)cc1  < 5.00
1      Fc1ccccc1N1CCN(Cc2c[nH]c3ncccc23)CC1  < 5.00
2    Fc1ccc(N2CCN(Cc3c[nH]c4ncccc34)CC2)cc1  < 5.00
3   CSc1ccc(N2CCN(Cc3c[nH]c4ncccc34)CC2)cc1  < 5.00
4   CCc1ccc(N2CCN(Cc3c[nH]c4ncccc34)CC2)cc1  < 5.00

Then this molecule:
For this molecule ( `COc1ccccc1N1CCN(Cc2c[nH]c3ncccc23)CC1` ), measured pKi is < 5.00

* * *

Listing of recorded pKi by entry.
target: Delta-type opioid receptor (Homo sapiens, UniProt P41143); experiment: Binding affinity to cloned Opioid receptor delta 1
Sequence (P41143 whole entry): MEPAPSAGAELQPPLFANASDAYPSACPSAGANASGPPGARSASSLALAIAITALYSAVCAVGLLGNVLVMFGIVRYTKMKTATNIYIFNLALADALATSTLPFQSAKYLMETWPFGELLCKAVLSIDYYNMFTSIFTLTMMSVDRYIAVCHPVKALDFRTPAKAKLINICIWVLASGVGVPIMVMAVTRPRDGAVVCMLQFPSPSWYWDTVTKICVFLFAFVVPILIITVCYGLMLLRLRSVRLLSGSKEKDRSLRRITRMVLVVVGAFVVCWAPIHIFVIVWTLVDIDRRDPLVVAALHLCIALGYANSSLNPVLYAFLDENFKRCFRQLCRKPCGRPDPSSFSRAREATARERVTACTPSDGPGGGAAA
pKi: −log10 of the molar value.

Use these answered entries as a reference point.
                             chemicalsmiles  result
0  c1ccc(-c2ccc(N3CCN(Cc4c[nH]c5ncccc45)CC3)cc2)cc1  < 5.00
1    Fc1ccc(N2CCN(Cc3c[nH]c4ncccc34)CC2)cc1  < 5.00

Reported pKi (Delta-type opioid receptor (Homo sapiens, UniProt P41143)) for entry `CSc1ccc(N2CCN(Cc3c[nH]c4ncccc34)CC2)cc1` is < 5.00

Form field pKi for item `Fc1ccccc1N1CCN(Cc2c[nH]c3ncccc23)CC1` on Delta-type opioid receptor (Homo sapiens, UniProt P41143): < 5.00

Param item: `C=Cc1ccc(N2CCN(Cc3c[nH]c4ncccc34)CC2)cc1` ; param system: Delta-type opioid receptor (Homo sapiens, UniProt P41143); output pKi: < 5.00

Tested on Delta-type opioid receptor (Homo sapiens, UniProt P41143), the item `CCCc1ccc(N2CCN(Cc3c[nH]c4ncccc34)CC2)cc1` showed pKi equal to < 5.00

* * *

What follows is a record of pKi for 5-hydroxytryptamine receptor 7 (Homo sapiens, UniProt P34969).
A value of pKi is the negative decimal logarithm of a concentration given in moles per litre.

`CCc1ccc(N2CCN(Cc3c[nH]c4ncccc34)CC2)cc1` tested on 5-hydroxytryptamine receptor 7 (Homo sapiens, UniProt P34969) gave pKi: 6.39

pKi value, target or system 5-hydroxytryptamine receptor 7 (Homo sapiens, UniProt P34969), for `Fc1ccccc1N1CCN(Cc2c[nH]c3ncccc23)CC1` : 6.67

With 5-hydroxytryptamine receptor 7 (Homo sapiens, UniProt P34969) as the test system, `CSc1ccc(N2CCN(Cc3c[nH]c4ncccc34)CC2)cc1` showed pKi of 6.47

* * *

biological target: Muscarinic acetylcholine receptor M1 (Homo sapiens); assay: Binding affinity to cloned Muscarinic acetylcholine receptor M1
Sequence (P11229 whole entry): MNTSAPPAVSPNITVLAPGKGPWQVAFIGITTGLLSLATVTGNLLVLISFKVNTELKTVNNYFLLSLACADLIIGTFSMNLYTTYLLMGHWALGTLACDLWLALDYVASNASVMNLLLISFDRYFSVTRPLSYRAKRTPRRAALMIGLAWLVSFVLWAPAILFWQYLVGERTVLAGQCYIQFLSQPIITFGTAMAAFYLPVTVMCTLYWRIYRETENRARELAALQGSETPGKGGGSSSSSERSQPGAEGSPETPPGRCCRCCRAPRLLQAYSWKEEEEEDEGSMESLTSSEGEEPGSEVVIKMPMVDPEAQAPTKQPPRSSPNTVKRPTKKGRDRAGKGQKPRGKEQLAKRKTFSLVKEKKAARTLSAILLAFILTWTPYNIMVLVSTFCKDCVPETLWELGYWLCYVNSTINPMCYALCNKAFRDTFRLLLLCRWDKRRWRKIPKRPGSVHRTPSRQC
readoutKind: Ki

Worked cases, Ki given:
In [3]: df
Out[3]:
                             chemicalsmiles  readoutkind   result
0  C=Cc1ccc(N2CCN(Cc3c[nH]c4ncccc34)CC2)cc1           Ki  > 10 µM
1  c1ccc(-c2ccc(N3CCN(Cc4c[nH]c5ncccc45)CC3)cc2)cc1           Ki  > 10 µM
2  CCCc1ccc(N2CCN(Cc3c[nH]c4ncccc34)CC2)cc1           Ki  > 10 µM

Here is the next item to consider.
Item `CCc1ccc(N2CCN(Cc3c[nH]c4ncccc34)CC2)cc1` ; assay system Muscarinic acetylcholine receptor M1 (Homo sapiens); Ki reported as > 10 µM

* * *

Parameter pKi, tested on D(3) dopamine receptor (Rattus norvegicus, UniProt P19020), listed per item.
Sequence (P19020 whole entry): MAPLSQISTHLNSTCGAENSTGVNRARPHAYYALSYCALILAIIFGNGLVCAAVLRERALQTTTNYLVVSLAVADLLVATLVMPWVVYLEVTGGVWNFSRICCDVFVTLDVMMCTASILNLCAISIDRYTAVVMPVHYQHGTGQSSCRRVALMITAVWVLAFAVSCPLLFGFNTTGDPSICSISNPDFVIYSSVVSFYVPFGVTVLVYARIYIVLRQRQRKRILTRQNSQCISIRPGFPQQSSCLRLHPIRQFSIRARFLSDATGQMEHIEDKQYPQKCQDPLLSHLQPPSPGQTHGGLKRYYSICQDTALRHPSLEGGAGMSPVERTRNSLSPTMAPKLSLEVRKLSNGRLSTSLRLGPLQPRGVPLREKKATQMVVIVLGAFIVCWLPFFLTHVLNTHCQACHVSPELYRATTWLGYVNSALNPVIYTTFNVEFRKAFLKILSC
Remember the convention: pKi equals -log10 of concentration in molar.

In [3]: df
Out[3]:
                            chemicalsmiles  readoutkind  result
0  CSc1ccc(N2CCN(Cc3c[nH]c4ncccc34)CC2)cc1          pKi    7.34
1    COc1ccccc1N1CCN(Cc2c[nH]c3ncccc23)CC1          pKi    6.18

Consider the record given below.
Entry under test: `CCCc1ccc(N2CCN(Cc3c[nH]c4ncccc34)CC2)cc1` . Its pKi was 6.04

* * *

Molecular target: D(4) dopamine receptor (Rattus norvegicus)
Sequence (P30729 whole entry): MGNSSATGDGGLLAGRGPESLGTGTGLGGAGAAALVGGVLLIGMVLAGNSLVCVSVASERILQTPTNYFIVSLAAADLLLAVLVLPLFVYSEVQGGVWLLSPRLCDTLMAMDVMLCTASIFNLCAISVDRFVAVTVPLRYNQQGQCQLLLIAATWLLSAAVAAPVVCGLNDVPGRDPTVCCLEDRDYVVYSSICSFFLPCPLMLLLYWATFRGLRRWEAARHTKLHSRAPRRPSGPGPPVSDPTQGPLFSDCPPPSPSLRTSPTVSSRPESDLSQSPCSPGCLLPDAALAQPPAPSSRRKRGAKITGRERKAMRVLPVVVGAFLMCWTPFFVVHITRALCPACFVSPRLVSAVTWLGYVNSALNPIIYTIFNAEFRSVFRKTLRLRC
Note to self: Ki under 5 nM means t, ties and anything higher get f.

>>> print(df.to_string())
                             chemicalsmiles                             subjectoftest  answerlabel
0      Fc1ccccc1N1CCN(Cc2c[nH]c3ncccc23)CC1  D(4) dopamine receptor (Rattus norvegicus)            t
1   CSc1ccc(N2CCN(Cc3c[nH]c4ncccc34)CC2)cc1  D(4) dopamine receptor (Rattus norvegicus)            t
2  CCCc1ccc(N2CCN(Cc3c[nH]c4ncccc34)CC2)cc1  D(4) dopamine receptor (Rattus norvegicus)            f

Q: Lab note: Ki threshold 5 nM. Does this compound come in strictly under it? `COc1ccccc1N1CCN(Cc2c[nH]c3ncccc23)CC1`
A: t

Q: I wonder whether `FC(F)(F)c1ccc(N2CCN(Cc3c[nH]c4ncccc34)CC2)cc1` has Ki below 5 nM. Can you tell?
A: f
